target: KDR kinase (Homo sapiens, UniProt P35968, DEL940-989/E990V); test: KDR kinase assay K1; assay type: biochemical; conditions: Method K1
Sequence (P35968 with tags, fused parts or gaps DEL940-989/E990V): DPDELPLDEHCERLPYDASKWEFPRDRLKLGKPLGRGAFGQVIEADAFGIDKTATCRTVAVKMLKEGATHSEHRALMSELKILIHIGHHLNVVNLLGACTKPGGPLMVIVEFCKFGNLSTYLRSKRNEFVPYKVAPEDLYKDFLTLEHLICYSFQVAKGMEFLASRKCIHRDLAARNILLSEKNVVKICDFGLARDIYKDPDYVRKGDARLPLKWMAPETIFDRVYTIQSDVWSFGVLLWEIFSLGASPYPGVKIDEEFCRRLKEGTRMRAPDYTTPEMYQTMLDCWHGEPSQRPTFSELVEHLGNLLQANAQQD
Exercise: for every item that follows, state its recorded IC50.

Name the reported IC50 value associated with the compound CC(C)(C)c1cc(NC(=O)Nc2ccc(F)cc2F)n(-c2cccc(CC(N)=O)c2)n1
2.4 µM

Same question for CC(C)(C)c1cc(NC(=O)Nc2cccc(Oc3cnccn3)c2)n(-c2cccc(CC(N)=O)c2)n1 please.
0.049 µM

Same question for CC(C)(C)c1cc(NC(=O)Nc2ccc(F)cc2F)n(-c2cccc(C#N)c2)n1 please.
0.4 µM

Same question for NC(=O)Cc1ccc(-n2nc(C3CCCC3)cc2NC(=O)Nc2cccc(Cl)c2Cl)cc1 please.
2.9 µM

Same question for CNC(=O)c1cc(Oc2ccc(NC(=O)Nc3cc(C(C)(C)C)nn3-c3cccc(CC(N)=O)c3)cc2)ccn1 please.
0.021 µM

Same question for CC(C)(C)c1cc(NC(=O)Nc2cccc(Cl)c2Cl)n(-c2cccc(CN3C(=O)NC(=O)C3=O)c2)n1 please.
1.4 µM

Same question for NC(=O)Cc1cccc(-c2ccc(C(F)(F)F)cc2NC(=O)Nc2ccc(-c3cccc4c3CNC4=O)cc2)c1 please.
0.21 µM

Same question for NC(=O)Cc1cccc(-n2nc(C3CCCC3)cc2NC(=O)Nc2cccc(Cl)c2Cl)c1 please.
1.5 µM
